# Test system: Clostridioides difficile
# assay-explanation: Antibacterial activity against Clostridium difficile ATTC43255 assessed as inhibition of vegetative cells in presence of vancomycin
# Type: functional, organism-based
value-kind: pIC50
Convention used: pIC50 is expressed as -log10 of the molar concentration.

Req: Which pIC50 is listed for `Cl.NCc1ccc(-c2nc(-c3ccnc(Oc4ccc(C(F)(F)F)cc4)c3)no2)cc1` ?
Resp: 4.64

----------
# assay-explanation: Binding affinity to N-terminal His-tagged full-length Clostridium difficile SleC extracted from Escherichia coli LOBSTR-RIL assessed as dissociation constant by MST assay
# Design: species or system Clostridioides difficile
pKd: −log10 of the molar value.
value-kind: pKd

Req: Which pKd reading was recorded for the molecule `Oc1ccc(-c2nc(-c3ccc(OC4CCCC4)cc3)no2)cc1` ?
Resp: < 3.70
